Cited source: ChEMBL document CHEMBL1131138

In this section we review reported inhibition in vivo at 1 mg/kg values for a set of compounds.
Tested on: Cavia porcellus
experimental protocol: Compound tested in vivo for inhibition of Bradykinin induced Bronchoconstriction in anaesthetized guinea pig at 1 mg/kg, po
Type: functional
reported endpoint: inhibition in vivo at 1 mg/kg (%)

[[record]]
entry_smiles = "CNC(=O)c1ccc(/C=C/C(=O)NCC(=O)N(C)c2ccc(Cl)c(COc3cccc4c3nc(OC)n4C)c2Cl)cc1"
reported_endpoint = "inhibition in vivo at 1 mg/kg"
measured_number = 21.7

[[record]]
entry_smiles = "CCc1nc2c(OCc3c(Cl)ccc(N(C)C(=O)CNC(=O)/C=C/c4ccc(C(=O)NC)cc4)c3Cl)cccc2n1C"
reported_endpoint = "inhibition in vivo at 1 mg/kg"
measured_number = 31.7

[[record]]
entry_smiles = "CNC(=O)c1ccc(/C=C/C(=O)NCC(=O)N(C)c2ccc(C)c(COc3cccc4c3nc(OC)n4C)c2C)cc1"
reported_endpoint = "inhibition in vivo at 1 mg/kg"
measured_number = 59.7

[[record]]
entry_smiles = "CC(=O)Nc1ccc(/C=C/C(=O)NCC(=O)N(C)c2ccc(Cl)c(COc3cccc4ncc(C)nc34)c2Cl)cc1"
reported_endpoint = "inhibition in vivo at 1 mg/kg"
measured_number = 28.6

